- system.under.test: OX2R Y317A (Homo sapiens, UniProt O43614, Y317A)
- Construct: expressed in transfected cells; host or cells: CHO-K1 stably expressing EA β-arrestin2
- assay.method.text: β-arrestin PathHunter assay, OX2R Y317A
- Assay type: cell-based
- condition.context: β-arrestin recruitment; read-out: EC50
pEC50: −log10 of the molar value.
measurement.name: pEC50

Recall and state the measured pEC50 for "COC(=O)N1CCC[C@H](NS(C)(=O)=O)[C@@H]1CO[C@H]1CC[C@@H](c2ccccc2)CC1" . < 4.52

----------
- system.under.test: OX2R1-406 (Homo sapiens)
- Construct: the receptor construct contained residues 1–406 of wild-type human OX2R
- Sequence (O43614 1-406): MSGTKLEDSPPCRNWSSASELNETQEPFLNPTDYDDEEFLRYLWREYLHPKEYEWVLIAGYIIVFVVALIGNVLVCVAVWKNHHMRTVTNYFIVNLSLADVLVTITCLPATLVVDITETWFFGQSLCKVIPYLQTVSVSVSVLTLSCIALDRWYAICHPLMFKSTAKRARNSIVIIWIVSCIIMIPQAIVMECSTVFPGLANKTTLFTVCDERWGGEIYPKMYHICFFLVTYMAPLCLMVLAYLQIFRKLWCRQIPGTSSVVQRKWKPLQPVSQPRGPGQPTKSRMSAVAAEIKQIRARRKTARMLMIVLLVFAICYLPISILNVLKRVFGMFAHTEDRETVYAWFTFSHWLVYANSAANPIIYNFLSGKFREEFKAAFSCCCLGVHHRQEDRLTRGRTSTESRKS
- assay.method.text: IP accumulation assay, C-terminally truncated OX2R1-406
- condition.context: IP accumulation
measurement.name: pEC50
One number for each entry, as −log10 of the molar value.

Recall and state the measured pEC50 for COC(=O)N1CCC[C@H](NS(C)(=O)=O)[C@@H]1CO[C@H]1CC[C@@H](c2ccccc2)CC1 [TAK-925] . 8.27
